Recorded IC50 values for a group of compounds are listed next.
test_system: Recombinant human HSD17B13 (Homo sapiens (Human), UniProt Q7Z5P4)
Sequence (Q7Z5P4 20-300): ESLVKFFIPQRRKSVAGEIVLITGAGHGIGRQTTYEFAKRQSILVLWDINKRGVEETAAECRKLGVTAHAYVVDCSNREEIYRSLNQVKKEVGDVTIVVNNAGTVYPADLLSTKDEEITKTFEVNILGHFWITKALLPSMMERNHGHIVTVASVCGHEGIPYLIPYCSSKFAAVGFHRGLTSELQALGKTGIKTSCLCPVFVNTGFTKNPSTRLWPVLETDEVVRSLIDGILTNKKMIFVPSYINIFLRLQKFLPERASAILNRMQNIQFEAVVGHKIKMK
assay_overview: HSD17B13 rapid-fire mass spectrometry assay (RF/MS assay)
test_context: inhibition of HSD17B13; LTB4 10 μM, NAD+ 0.5 mM, RT 3 h; IC50 ranges A-E
property_label: IC50

compound: COc1cc(C(=O)O)c(F)cc1NS(=O)(=O)c1csc(C#Cc2ccccc2Cl)n1 [Example 235]
property_label: IC50
recorded_value: < 0.1 µM

compound: COc1cc(C(=O)O)ccc1NS(=O)(=O)c1csc(N2CCN(Cc3ccc(OC(F)(F)F)cc3)CC2)n1 [Example 308]
property_label: IC50
recorded_value: 0.1 to 0.5 µM

compound: COc1cc(C(=O)O)c(F)cc1NS(=O)(=O)c1csc(-c2ccc(C3=CCC(C)(C)CC3)c(OC)c2)n1 [Example 523]
property_label: IC50
recorded_value: < 0.1 µM

compound: COc1cc(C(=O)O)ccc1NS(=O)(=O)c1csc(-c2ccc(-c3ccc(-c4ccc5c(c4)OCCO5)cc3)cc2)n1 [Example 383]
property_label: IC50
recorded_value: < 0.1 µM

compound: O=C(O)c1ccc(NS(=O)(=O)c2ccc3ccc(S(=O)(=O)Nc4ccc(C(=O)O)cc4O)cc3c2)c(O)c1 [Example 171]
property_label: IC50
recorded_value: < 0.1 µM

compound: COc1cc(C(=O)O)ccc1NS(=O)(=O)c1csc(C#Cc2cccc(C(F)(F)F)c2)n1 [Example 202]
property_label: IC50
recorded_value: < 0.1 µM

compound: COc1cc(C(=O)O)ccc1NS(=O)(=O)c1csc(-c2ccc(-c3ccccc3)cc2F)n1 [Example 304]
property_label: IC50
recorded_value: 0.5 to 1 µM

compound: O=C(O)c1ccc2c(c1)CCCCN2S(=O)(=O)c1cnc(-c2ccc(F)cc2)s1 [Example 133]
property_label: IC50
recorded_value: 1 to 100 µM

compound: COc1cc(C(=O)O)c(F)cc1NS(=O)(=O)c1cnn(-c2ccc([C@H]3CC[C@@H](C(F)(F)F)CC3)cc2)c1 [Example 685]
property_label: IC50
recorded_value: 0.1 to 0.5 µM

compound: COc1cc(C(=O)O)c(F)cc1NS(=O)(=O)c1csc(-c2ccc(C3=CCC(C(C)C)CC3)c(F)c2F)n1 (stereo not shown) [Example 771]
property_label: IC50
recorded_value: < 0.1 µM

compound: COc1cc(C(=O)O)ccc1NS(=O)(=O)c1csc(-c2ccc(C)cc2)n1 [Example 97]
property_label: IC50
recorded_value: 0.1 to 0.5 µM

compound: CCc1cc(C2=CCC(C)(C)CC2)ccc1-c1nc(S(=O)(=O)Nc2cc(F)c(C(=O)O)cc2OC)cs1 [Example 563]
property_label: IC50
recorded_value: < 0.1 µM

compound: COc1cc(C(=O)O)ccc1NS(=O)(=O)c1csc(N2CCN(C(=O)c3ccccc3)CC2)n1 [Example 287]
property_label: IC50
recorded_value: 1 to 100 µM

compound: COc1cc(C(=O)O)c(F)cc1NS(=O)(=O)c1csc(-c2ccc(C3CCC(C)(C)CC3)c(F)c2)n1 [Example 513]
property_label: IC50
recorded_value: < 0.1 µM

compound: CCOc1c(F)c(-c2nc(S(=O)(=O)Nc3cc(F)c(C(=O)O)cc3OC)cs2)ccc1[C@H]1CC[C@@H](C(F)(F)F)CC1 [Example 814]
property_label: IC50
recorded_value: < 0.1 µM

compound: COc1cc(C(=O)O)c(F)cc1NS(=O)(=O)c1cc(-c2ccc(C3CCCCC3)cc2)ccn1 [Example 622]
property_label: IC50
recorded_value: 0.5 to 1 µM

compound: COc1cc(C(=O)O)ccc1NS(=O)(=O)c1csc(C#Cc2ccc(Cl)cc2)n1 [Example 185]
property_label: IC50
recorded_value: 0.5 to 1 µM

compound: COc1cc(C(=O)O)ccc1NS(=O)(=O)c1csc(-c2cccc(C(F)(F)F)c2)n1 [Example 126]
property_label: IC50
recorded_value: 0.5 to 1 µM

compound: COc1cc(C(=O)O)ccc1NS(=O)(=O)c1ccc(-c2ccc(C3CCCCC3)cc2)s1 [Example 374]
property_label: IC50
recorded_value: 0.1 to 0.5 µM

compound: COc1cc(C(=O)O)ccc1NS(=O)(=O)c1ccc(-c2cccc(C(F)(F)F)c2)s1 [Example 212]
property_label: IC50
recorded_value: < 0.1 µM

compound: COc1cc(C(=O)O)c(F)cc1NS(=O)(=O)c1coc(-c2ccc(C3=CCC(C)(C)CC3)cc2C(F)(F)F)n1 [Example 675]
property_label: IC50
recorded_value: < 0.1 µM

compound: O=S(=O)(Nc1ccc(-c2nnn[nH]2)cc1)c1cnc(-c2ccc(F)cc2)s1 [Example 34]
property_label: IC50
recorded_value: 1 to 100 µM
